# protocolNotes: Rat PK study
# Type: in vivo
# runConditions: Sprague-Dawley (SD); male SD rat, IV 1 mg/kg, plasma; read-out: T1/2 (converted)

molecule	unitLabel	half-life
CC[C@@]1(O)C(=O)OCc2c1cc1n(c2=O)Cc2c-1nc1ccc(N)c3c1c2CCS3 [drawing 112]	h	2.1

----------
# protocolNotes: Rat PK study
# Format: in vivo
# runConditions: male, Sprague-Dawley (SD), rat, in vivo, iv, 1 mg/kg

structureString	unitLabel	Vd
CC[C@@]1(O)C(=O)OCc2c1cc1n(c2=O)Cc2c-1nc1ccc(N)c3c1c2C=CS3	L/kg	0.9

----------
# protocolNotes: Rat PK study
# Assay type: in vivo
# runConditions: Sprague-Dawley (SD); male SD rat, IV 1 mg/kg, plasma; read-out: Vss

molecule	Vd [L/kg]
CC[C@@]1(O)C(=O)OCc2c1cc1n(c2=O)Cc2c-1nc1ccc(N)c3c1c2CCS3 [drawing 112]	7.2

----------
# protocolNotes: Rat PK study
# Type: in vivo
# runConditions: male, Sprague-Dawley (SD), rat, in vivo, iv, 1 mg/kg

structureString	MRT inf, min
CC[C@@]1(O)C(=O)OCc2c1cc1n(c2=O)Cc2c-1nc1ccc(N)c3c1c2C=CS3	12

----------
# protocolNotes: Rat PK study
# Format: in vivo
# runConditions: Sprague-Dawley (SD); male SD rat, IV 1 mg/kg, plasma; read-out: MRT0-∞

molecule	unitLabel	MRT inf
CC[C@@]1(O)C(=O)OCc2c1cc1n(c2=O)Cc2c-1nc1ccc(N)c3c1c2CCS3 [drawing 112]	h	1.9

----------
# protocolNotes: Rat PK study
# Type: in vivo
# runConditions: Sprague-Dawley (SD), in vivo; male SD rat, IV 1 mg/kg, plasma; read-out: T1/2 (converted)
# Procedure: Male SD rat, 180-200 g (BK lab. Animal Ltd.), 3 Rats/group. Blood samples were collected by orbital vein after IV administration 1 mg/kg dosage at 0.083, 0.5, 1, 2, 4, and 8 h into heparin-containing tubes, centrifugated at 10000 rpm for 3 min to get plasma. All samples were stored at −20° C. until they were sent to Suzhou Chengyao Biotech Co., Ltd. for analysis.
quantity: half-life (min)

molecule	observed
CC[C@@]1(O)C(=O)OCc2c1cc1n(c2=O)Cc2c-1nc1cc(F)c(C)c3c1c2[C@@H](NC(=O)CO)CC3 [drawing 111]	30

----------
# protocolNotes: Rat PK study
# Type: in vivo
# runConditions: Sprague-Dawley (SD), in vivo; male SD rat, IV 1 mg/kg, plasma; read-out: MRT0-∞

molecule	MRT inf [min]
CC[C@@]1(O)C(=O)OCc2c1cc1n(c2=O)Cc2c-1nc1cc(F)c(C)c3c1c2[C@@H](NC(=O)CO)CC3 [drawing 111]	30

These measurements were taken from patent US20240382608A1.
